# experimental.details: chemical genetic growth profiling, strain panel (AID 1159580);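 further: tested at 20 µM; growth read once vehicle control cultures reached saturation at 30 °C; 1 = growth at the plate median or of vehicle wells; lower values mean less growth of the strain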
# condition.set: S. cerevisiae deletion strains, growth OD, locus YOL012C, strain htz1
Out of some 5,500 compounds screened, about 2,000 (36%) were called active. Roughly 18% stayed inconclusive and do not appear here. Some of the results follow.
Lab note: compare normalized growth against 1. Equal or greater, write 1.0. Smaller, write 0.0.

| compound | answer.label |
| --- | --- |
| COc1cc(C(=O)O)c(O)c2c1OCO2 | 1.0 |
| CCOP(=S)(OCC)SCSP(=S)(OCC)OCC | 1.0 |
| COc1cc(C(=O)O)cc(OC)c1O | 1.0 |
| CC(=O)Oc1cc(C)c2c(c1C(OC(C)=O)OC(C)=O)Oc1c(c(C)c(OC(C)=O)c3c1C(OC(C)=O)OC3=O)OC2=O (centres undefined) | 0.0 |
| CC(COc1ccccc1)N(CCCl)Cc1ccccc1 (centres undefined) | 0.0 |
| CC(C)C1=CC2=CCC3[C@](C)(CCC[C@]3(C)C(=O)O)C2CC1 (some centres undefined) | 1.0 |
| O=C(O)c1cc(=O)c(O)c2c(O)c(O)ccc2c1 | 0.0 |
| O=C(O)c1cc(=O)c2c(OCC(O)COc3cccc4oc(C(=O)O)cc(=O)c34)cccc2o1 | 0.0 |
| CC(=O)O[C@H]1C[C@@H](OC(C)=O)C(C)(C)C2C[C@@H](OC(C)=O)[C@]3(C)C(CC[C@@]4(C)[C@H](c5ccoc5)C(=O)[C@H]5O[C@]543)[C@]21C (some centres undefined) | 1.0 |
| C[C@@]12C(=O)OC(=O)[C@]1(C)C1CCC2O1 | 0.0 |
| O=C(O)c1cc(O)c(O)c(O)c1 | 0.0 |
| O=C(O)P(=O)(O)O | 0.0 |
| C=CCc1cc(OC)c2c(c1OC)OCO2 | 1.0 |

###

# experimental.details: chemical genetic growth profiling, strain panel (AID 1159580);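 further: tested at 20 µM; growth read once vehicle control cultures reached saturation at 30 °C; 1 = growth at the plate median or of vehicle wells; lower values mean less growth of the strain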
# condition.set: S. cerevisiae deletion strains, growth OD, locus YOR270C, strain vph1
Hit rate of the full screen: of about 5,500 compounds, about 2,000 (36%) were called active. Inconclusive results (about 18%) are left out. Rule as the data show it: active = normalized growth mostly below about 0.91 (no sharp cut-off); inconclusive = no clear call, values can overlap the other calls; inactive = mostly above about 0.92. Some of the results follow.
Labels: Yes for active, No for inactive

| compound | answer.label |
| --- | --- |
| COc1ccc(/C=C/c2cc(O)cc(O)c2)cc1 | No |
| NC(=O)c1ccc(N)nc1 | No |
| CC12CCC(CC1)C(C)(C)O2 | No |
| CCOC(=O)C1=C[C@]2(CC)CCCN3CCc4c(n1c1ccccc41)[C@@H]32 | No |
| COc1ccc(CN(CCN(C)C)c2ncccn2)cc1 | No |
| CC1(C)CC2C1CCC1(C)OC2(C)CCC1O (centres undefined) | No |
| CN1CCc2cccc3c2C1Cc1ccc(O)c(O)c1-3 (centres undefined) | Yes |
| CC12CCC3C(CC=C4CC(O)CCC43C)C1CCC2=O (centres undefined) | Yes |
| CC(=O)OCC(=O)[C@@]12OC(C)(C)O[C@@H]1CC1C3C[C@H](F)C4=CC(=O)C=C[C@]4(C)[C@@]3(F)[C@@H](O)C[C@@]12C (some centres undefined) | No |
| C=CCN1CC[C@]23c4c5ccc(O)c4OC2C(=O)CC[C@@]3(O)[C@H]1C5 (some centres undefined) | No |
| COc1cc2c(cc1O)CC1c3c(cc(O)c(OC)c3-2)CCN1C (centres undefined) | No |
| OC1CCCCC1N1CCC(c2ccccc2)CC1 (centres undefined) | No |
| CC[C@]12CCCN3CCc4c(n(c5ccccc45)C(=O)C1)[C@@H]32 | No |
| CCCCC(CC)CN=C(N)NC(N)=NCCCCCCN=C(N)NC(N)=NCC(CC)CCCC (centres undefined) | Yes |
| CC(=O)O[C@H]1CC[C@@]2(C)C(=CCC3C2CC[C@@]2(C)C3CC[C@@H]2C(C)CCCC(C)C)C1 (some centres undefined) | No |
| O=C(/C=C/c1ccc(O)c(O)c1)O[C@@H]1C[C@](O)(C(=O)O)C[C@@H](O)[C@H]1O | No |
| CC12CCCC(O)(C1)C1CC(C)(C)C1CC2 (centres undefined) | Yes |
| CC1(C)O[C@@H]2[C@@H](CO[C@@]3(COS(N)(=O)=O)OC(C)(C)O[C@@H]23)O1 | No |
| OC/C=C/c1ccc(O)c(O)c1 | No |
